Hello, the source for this data is PubChem BioAssay (NCI), in case you need it.

System: OVCAR-5 ovarian
Test: NCI tumour cell line growth inhibition, 48 h
attribute-measured: TGI

{"compound": "Cc1c(C(=O)c2ccccc2C(=O)O)c2ccccc2n1C", "value": "> 100 µM"}

Give me TGI for each of these compounds, listed below.
1. COc1cc(OC)c2c(O)c3c(cc2c1)CC(C)(C)CC3=O
2. CC(C(=O)ON1C(=O)CCC1=O)c1ccc(C(=O)c2ccccc2)s1 (stereo not drawn)

Response:
> 100 µM
> 100 µM

----------
Assignment: determine reported TGI for the given compounds.
Tested on: MCF7 breast
Experiment: NCI tumour cell line growth inhibition, 48 h
Answers are plain numbers, in µM.

Give me TGI for each of these compounds, listed below.
1. CN(C)CCCN1c2nc3ccccc3cc2Sc2cc3ccccc3nc21
2. CCOC(=O)C(=Cc1ccccc1[N+](=O)[O-])C(=O)OCC
3. COC1=C(N=[N+]=[N-])C(=O)c2ncccc2C1=O

Response:
1: 2.18; 2: 14.2; 3: 3.41

----------
Test system: BT-549 breast
The reply should be one of these categories: 1 (yes) (active), 0 (no) (inactive)

Solved entries (count: 4):
{"compound": "O=C(Nc1ccc(Cl)cc1)c1ccc(NC2=C(Cl)C(=O)N(Cc3ccccc3)C2=O)cc1", "system": "BT-549 breast", "class-name": "0 (no)"}
{"compound": "OCC1OC(n2ccc3c(NO)ncnc32)C(O)C1O (stereo not given)", "system": "BT-549 breast", "class-name": "1 (yes)"}
{"compound": "Cn1ncc2c(N)nc(N3CCCCC3)nc21", "system": "BT-549 breast", "class-name": "0 (no)"}
{"compound": "COc1ccc2c(Nc3ccc(NS(C)(=O)=O)cc3)c3ccccc3nc2c1", "system": "BT-549 breast", "class-name": "0 (no)"}

Attention now turns to another entry.
Request: What was the test verdict on "C=C1C(=O)O[C@H]2[C@H]1CC/C(COC(=O)NCc1ccc(Cn3c(=O)sn(CCCCl)c3=O)cc1)=C\CC[C@@]1(C)O[C@@H]21" ?
Response: 0 (no)

----------
System: RXF 393 renal
Test: NCI tumour cell line growth inhibition, 48 h
attribute-measured: TGI

{"mol": "COc1cc2c(c(OC)c1OC)-c1ccc(SC)c(=O)cc1[C@@H](OC(C)=O)CC2", "TGI": "> 100 µM"}
{"mol": "O=C1O/C(=C(\\Br)c2cccc3ccccc23)c2ccccc21", "TGI": "> 62.8 µM"}
{"mol": "O=C1CSc2nc3ccccc3n2/C=N\\N1", "TGI": "> 100 µM"}
{"mol": "NNc1cccc(/C=C/c2ccccc2)cc1=O", "TGI": "> 100 µM"}

With those in mind, consider the next molecule.
The molecule listed as "CN(C)c1ccc(/C=C2\N=C(NN)NC2=O)cc1" shows TGI equal to > 100 µM

----------
Tested on: NCI-H460 lung
Assay: NCI tumour cell line growth inhibition, 48 h
attribute-measured: TGI

Consider the following illustrative entries.
{"molecule": "COC(=O)/C=C(\\C)C(=O)N(C)c1ccccc1I", "TGI": "> 100 µM"}
{"molecule": "C=CC1ON(Cc2ccccc2)CCc2cc(OC)c(OC)cc21 (stereo unspecified)", "TGI": "> 100 µM"}
{"molecule": "CN(C)CCCN1c2nc3ccccc3cc2Sc2cc3ccccc3nc21", "TGI": "3.13 µM"}

Give me TGI for each of these molecules, listed below.
1. O=C(CN1CCN(Cc2ccccc2)CC1)N1CCCn2c1nc1ccccc1c2=O
2. COCC(=O)CP(=O)(OC)OC
3. COc1c(C(=O)O)oc2c(OC)cccc12
4. CCOC(=O)c1[nH]c(-c2ccc(Cl)cc2)cc1-c1cccnc1
5. Cc1sc2nc(-c3cc([N+](=O)[O-])c(Cl)cc3Cl)c(/C=N/N=C(N)N)n2c1C
6. COc1ccccc1NC(=O)n1nc(N)c2ccccc21

Response:
1: > 100 µM; 2: > 100 µM; 3: > 100 µM; 4: > 100 µM; 5: 54.7 µM; 6: > 100 µM

----------
Test system: M19-MEL melanoma
Assay: NCI tumour cell line growth inhibition, 48 h
attribute-measured: TGI

Consider the following illustrative entries.
{"compound": "N=c1nnc(=O)c2c(s1)-n1ncc(C(=O)O)c1NN2", "attribute-measured": "TGI", "value": "> 100 µM"}
{"compound": "CCCCCCCC(=O)OC(CBr)COC(=O)C(C)(C)C (stereo not drawn)", "attribute-measured": "TGI", "value": "> 100 µM"}

With those in mind, consider the next compound.
The compound listed as CC(=O)OCC1OC(n2cc(F)c(=O)[nH]c2=O)C(N)C(OC(C)=O)C1OC(C)=O (stereo not drawn) shows TGI equal to > 100 µM

----------
Test system: ACHN renal
Experiment: NCI tumour cell line growth inhibition, 48 h
attribute-measured: TGI

Consider the following illustrative entries.
{"compound": "O=c1cc2ccccc2nn1Cc1ccccc1Cl", "value": "> 100 µM"}
{"compound": "COC(=O)c1ccccc1C#CC#Cc1ccccc1C(=O)OC", "value": "> 10 µM"}
{"compound": "COC(=O)C(C)(N=Cc1ccccc1)c1ccccc1 (stereo not drawn)", "value": "> 100 µM"}
{"compound": "Cn1c(C(C#N)c2nc(Cl)ncc2Br)nc2ccccc21 (stereo not drawn)", "value": "> 100 µM"}
{"compound": "COc1ccc(S(=O)(=O)O)cc1-n1nc(C(=O)Nc2ccccc2)n[n+]1-c1cc(S(=O)(=O)[O-])ccc1OC", "value": "> 100 µM"}
{"compound": "COc1ccccc1-c1cc(=O)c2ccccc2[nH]1", "value": "> 100 µM"}
{"compound": "NCCCn1c2ccccc2c2c3c(c4c(c21)CCC(O)CC4)C(=O)NC3=O (stereo not drawn)", "value": "12.1 µM"}

The compound listed as "O=C(NCCCNc1cc(-c2cn(-c3ccccc3)nc2-c2cccc(O)c2)ccn1)c1ccccc1" shows TGI equal to > 100 µM

----------
Assignment: determine reported TGI for the given molecules.
Tested on: SNB-19 CNS
Assay: NCI tumour cell line growth inhibition, 48 h

Consider the following illustrative entries.
{"mol": "CN1CCCN(C)C1c1cc([N+](=O)[O-])ccc1O", "system": "SNB-19 CNS", "TGI": "> 100 µM"}
{"mol": "Cn1c(=O)c(Oc2ccccc2F)cc2cnc(NC3CCOCC3)nc21", "system": "SNB-19 CNS", "TGI": "> 25 µM"}
{"mol": "O=C(CC/C=C(/CS(=O)(=O)c1ccccc1)S(=O)(=O)c1ccccc1)c1ccccc1", "system": "SNB-19 CNS", "TGI": "> 100 µM"}

With those in mind, consider the next molecule.
The molecule listed as "O=C1C(NCCc2ccc(O)c(O)c2)=CC(=O)c2ncccc21" shows TGI equal to 45.8 µM

----------
Test system: NCI/ADR-RES ovarian
Assay: NCI tumour cell line growth inhibition, 48 h
Assignment: determine reported TGI for the given compounds.

{"compound": "COc1ccccc1C1SCC(=O)N1c1ccc(-c2ccc(-n3c(-c4ccccc4)nc4ccccc4c3=O)cc2)cc1 (centres undefined)", "TGI": "> 100 µM"}

Give me TGI for each of these compounds, listed below.
1. Cc1c2c(cc3c1[nH]c1ccccc13)C=NCC2
2. Cn1c(=O)c2c(nc3n(Cc4ccccc4)c(=O)c(NCCBr)cn23)n(C)c1=O
3. CCCCCCCCCCN(CCCCCCCCCC)CC(=O)c1ccc2cc(Br)c3ccccc3c2c1
4. c1ccc(C2=Nc3nc4ccccc4n3C(c3ccccc3)C2)cc1 (centres undefined)
5. COc1ccc(S(=O)(=O)O)cc1-n1nc(C(=O)Nc2ccccc2)n[n+]1-c1cc(S(=O)(=O)[O-])ccc1OC
6. Cn1ccn2c3nc4ccccc4nc3c(=O)c(C#N)c12

Response:
63.3 µM
60.2 µM
3.52 µM
> 100 µM
> 100 µM
> 81.8 µM

Give me TGI for each of these compounds, listed below.
1. c1ccc(-c2sc(-c3cccs3)cc2Cc2cccs2)cc1
2. O=C1CSc2nc3ccccc3n2/C=N\N1
3. COC(=O)c1ccccc1C#CC#Cc1ccccc1C(=O)OC
4. CCOC(=O)C(CO)c1nc2c([nH]c1=O)c(=O)n(C)c(=O)n2C (centres undefined)
5. Nc1ccc2c(c1)NCCN2

Response:
["> 10 µM", "> 100 µM", "> 10 µM", "> 100 µM", "> 100 µM"]

Give me TGI for each of these compounds, listed below.
1. COc1ccc(-c2cc(/C=C3\C(=O)Nc4ccc(Cl)cc43)[nH]n2)cc1
2. COC1=C(N=[N+]=[N-])C(=O)c2ncccc2C1=O

Response:
1: 17.7 µM; 2: 25.6 µM

----------
Assignment: determine reported TGI for the given compounds.
Tested on: OVCAR-5 ovarian
Assay: NCI tumour cell line growth inhibition, 48 h

Consider the following illustrative entries.
{"compound": "CCOC(=O)c1[nH]c(-c2ccc(Cl)cc2)cc1-c1cccnc1", "system": "OVCAR-5 ovarian", "TGI": "> 100 µM"}
{"compound": "NNc1nc2ccccc2c(=O)n1NC(=O)C(=O)Nc1cccc(C(F)(F)F)c1", "system": "OVCAR-5 ovarian", "TGI": "> 100 µM"}
{"compound": "CCOC(=O)C(=Cc1ccccc1[N+](=O)[O-])C(=O)OCC", "system": "OVCAR-5 ovarian", "TGI": "15.7 µM"}
{"compound": "CCCCCC(=O)N[C@@H](c1ccccc1)C(O)C(=O)OC1C[C@@]2(O)C(OC(=O)c3ccccc3)C3[C@](C)(C(=O)[C@H](O)C(=C1C)C2(C)C)C(OC1OCC(O)C(O)C1O)C[C@H]1OC[C@@]31OC(C)=O (stereo partly drawn)", "system": "OVCAR-5 ovarian", "TGI": "> 100 µM"}
{"compound": "O=c1[nH]nc(-c2ccccc2)n1/N=C/c1ccncc1", "system": "OVCAR-5 ovarian", "TGI": "> 100 µM"}

Give me TGI for each of these compounds, listed below.
1. C=C1C(=O)O[C@H]2[C@H]1CC/C(COC(=O)NCc1ccc(Cn3c(=O)sn(CCCCl)c3=O)cc1)=C\CC[C@@]1(C)O[C@@H]21
2. Clc1ccc2sc(-n3ccc4ccccc43)nc2c1
3. C/C(=N\NS(=O)(=O)c1ccccc1)c1ccccc1
4. C=CCOc1ccccc1N=N/C(C#N)=N\Nc1ccccc1OCC=C

Response:
5.95 µM
> 100 µM
> 100 µM
> 100 µM
